# study.target: Recombinant Human Siglec-3/CD33 protein (His-CD33) (Homo sapiens (Human))
# Sequence (P20138 18-259): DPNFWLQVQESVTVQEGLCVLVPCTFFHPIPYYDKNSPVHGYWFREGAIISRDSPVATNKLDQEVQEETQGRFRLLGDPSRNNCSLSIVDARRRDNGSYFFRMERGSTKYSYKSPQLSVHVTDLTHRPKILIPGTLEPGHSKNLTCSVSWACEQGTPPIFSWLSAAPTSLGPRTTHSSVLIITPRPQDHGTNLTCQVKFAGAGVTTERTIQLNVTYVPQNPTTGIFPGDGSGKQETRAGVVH
# experiment: Differential scanning fluorimetry (DSF) thermal shift assay
# Format: binding
# experimental.setup: difference in thermal melt of CD33 protein (0.5 μM) with 50 μM compound
parameter: DSF (dTmD) (°C)
Respond numerically; units are °C and should not be typed.

The examples below pair each entry with its known result.
molecule	DSF (dTmD) / °C
Cc1cc2cc(C)c1OCCOC[C@@H](NC(=O)C1CCCOC1)COCCCC[C@]1(C(=O)O)C[C@H](O)[C@@H](NC(=O)Cn3cc(C4CCCCC4)nn3)[C@@H](O1)[C@H](O)[C@H](O)CNC2=O (stereo partly shown)	4.22
CC(=O)N[C@H]1[C@H]([C@H](O)[C@H](O)CNC(=O)c2cc(C)c(O)c(C)c2)O[C@@](CC2OC(C)(C)O[C@H]2c2cccc(NC(=O)OC(C)(C)C)c2)(C(=O)O)C[C@@H]1O (stereo partly shown)	6.4
Cc1cc(C(=O)NC[C@@H](O)[C@@H](O)[C@@H]2O[C@@](OCCOCCNC(=O)OCc3ccccc3)(C(=O)O)C[C@H](O)[C@H]2NC(=O)Cn2cc(C3CCCCC3)nn2)cc(C)c1O	4.4

Supply DSF (dTmD) value. Item: CC(=O)N[C@H]1[C@H]([C@H](O)[C@H](O)CNC(=O)c2cc(C)c(O)c(C)c2)O[C@@](C/C=C/c2cccc(CNC(=O)C3CCCC(Nc4ccc(C)cn4)C3)c2)(C(=O)O)C[C@@H]1O (stereo partly shown) 3.1

Supply DSF (dTmD) value. Item: `Cc1cc(C(=O)NC[C@@H](O)[C@@H](O)[C@@H]2O[C@@](C/C=C/c3cccc(CNC(=O)c4ccc(Cl)cc4)c3)(C(=O)O)C[C@H](O)[C@H]2NC(=O)Cn2cc(C3CCCCC3)nn2)cc(C)c1O` 3.5

Supply DSF (dTmD) value. Item: Cc1cc(C(=O)NC[C@@H](O)[C@@H](O)[C@@H]2O[C@@](C/C=C/c3cccc(CNC(=O)C4CCC(NS(C)(=O)=O)CC4)c3)(C(=O)O)C[C@H](O)[C@H]2NC(=O)Cn2cc(C3CCCCC3)nn2)cc(C)c1O (stereo partly shown) 6.9

Supply DSF (dTmD) value. Item: `CC(=O)N[C@H]1[C@H]([C@H](O)[C@H](O)CNC(=O)c2cc(C)c(O)c(C)c2)O[C@@](C/C=C/c2cccc(CNC(=O)c3cccc(NCc4cncs4)c3)c2)(C(=O)O)C[C@@H]1O` 2.2

Supply DSF (dTmD) value. Item: `Cc1cc(C(=O)NC[C@@H](O)[C@@H](O)[C@@H]2O[C@@](C/C=C/c3cccc(CNC(=O)C4CCOCC4)c3)(C(=O)O)C[C@H](O)[C@H]2NC(=O)Cn2cc(C3CCCCC3)nn2)cc(C)c1O` 4.4

Supply DSF (dTmD) value. Item: Cc1cc(C(=O)NC[C@@H](O)[C@@H](O)[C@@H]2O[C@@](OC3CCCCC3NC(=O)CNC(=O)CC3CCOCC3)(C(=O)O)C[C@H](O)[C@H]2NC(=O)Cn2cc(C3CCCCC3)nn2)cc(C)c1O (stereo partly shown) 1.4

All figures here come from patent US20250313574A1.
